B1: Serine/threonine-protein kinase A-Raf, residues 21 to 89; numbered along this chain, P10398 (parent)
chain: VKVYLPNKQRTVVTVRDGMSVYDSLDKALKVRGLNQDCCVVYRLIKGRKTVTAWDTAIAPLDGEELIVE

Variants of: B1
Test: abundance fitness (aPCA) (normalised: wild type 0, dead -1); higher = more abundant; growth selection in yeast, the domain comes from the species named
Details: Homo sapiens
Each entry falls in a class defined on abundance fitness; the bands are low end: < -0.4; middle: ≥ -0.4 and < -0.07; high end: ≥ -0.07

Completed entries (count: 8):
In [3]: df
Out[3]:
                                   sequence  group_label
0  VKVYLPNKQRTVVTVRDGMSVDDSLDKALKVRGLNQDCCVVYRLIKGRKTVTAWDTAIAPLDGEELIVE [Y22D]      low end
1  VTVYLPNKQRTVVTVRDGMSVYDSLDKALKVRGLNQDCCVVYRLIKGRKTVTAWDTAIAPLDGEELIVE [K2T]     high end
2  VKVYLPNKQRTNVTVRDGMSVYDSLDKALKVRGLNQDCCVVYRLIKGRKTVTAWDTAIAPLDGEELIVE [V12N]       middle
3  VKVYLPNKQITVVTVRDGMSVYDSLDKALKVRGLNQDCCVVYRLIKGRKTVTAWDTAIAPLDGEELIVE [R10I]     high end
4  VKVYLPNKQRTVVTVRDGMSVYDSLDKALEVRGLNQDCCVVYRLIKGRKTVTAWDTAIAPLDGEELIVE [K30E]       middle
5  VKVYLPNKQRTVVTVRDGMSVYDSLDKALKVRGLNQDCCVVYRLIKGSKTVTAWDTAIAPLDGEELIVE [R48S]       middle
6  VKQYLPNKQRTVVTVRDGMSVYDSLDKALKVRGLNQDCCVVYRLIKGRKTVTAWDTAIAPLDGEELIVE [V3Q]      low end
7  VKVYLPNKQRTVVTVRDGMWVYDSLDKALKVRGLNQDCCVVYRLIKGRKTVTAWDTAIAPLDGEELIVE [S20W]      low end

Could you now look at the following variant, please?
Enquiry: Form field 'band' for VKVYMPNKQRTVVTVRDGMSVYDSLDKALKVRGLNQDCCVVYRLIKGRKTVTAWDTAIAPLDGEELIVE [L5M]
Return: high end
